B1: NECAB1 (parent)
chain: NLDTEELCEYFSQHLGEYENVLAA

- Variants of: B1
- experimentSummary: protein stability index of a GFP-peptide fusion (GPS, HEK-293T) (PSI 1-6); higher = more stable;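 also: lentivirally expressed fusions sorted by FACS into six bins by GFP to DsRed ratio, PSI derived from sequencing read proportions per bin multiplied by bin number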
- particulars: c terminus: a fixed tail appended
propertyName: protein stability index

Here's what some known entries look like.
Y18M: 3.6
N20S: 3.05
Y10M: 4.18
E9H: 2.38
A24V: 2.8

I am curious: what protein stability index value has been reported for `E6Y` ?
2.46

Input `L15R`
3.1

Input `N20P`
2.32

Input `V21K`
2.07

Input `Q13V`
2.7
